conditions: pH 6.8
recorded_metric: log10 of aqueous solubility (log10 of the value in µg/mL)
# log10 transformed; quantity=aqueous solubility; unit=µg/mL

For orientation, consider the following solved cases.
Value lookup for log10 of aqueous solubility; key = "N#CN1CCC[C@H](n2nc(-c3ccc(Oc4ccc(F)cc4F)cc3)c(C(N)=O)c2N)C1"
1.56

Same question for "CCn1c(=O)c2c(nc3n2CCN3c2cc(C)cc(C)c2)n(C)c1=O" please.
-0.30

Same question for "NC(=O)Cn1nnc(-c2ccccc2F)n1" please.
1.06

More entries:
Value lookup for log10 of aqueous solubility; key = COc1ccc(-c2cccc(C3CCCN(CC(=O)Nc4ccccn4)C3)n2)cc1 (stereo not given)
0.91

Same question for "CN(CCOCCOc1ccccc1-c1ccccc1)Cc1ccccc1.O=C(O)C(=O)O" please.
1.46
